System: L1210 leukemia ip in BDF1 mice, survival T/C
Measurement Description: NCI In Vivo Anticancer Drug Screen. Data for tumor model L1210 Leukemia (intraperitoneal) in B6D2F1 (BDF1) mice
Condition Set: endpoint: mean survival time; dose: 100.0 mg/kg/injection; schedule: Q01DX009 (ip); vehicle: saline; higher = longer survival
Inconclusive results and toxic doses are left out.
For each record, write down the corresponding T/C.

Observed T/C, L1210 leukemia ip in BDF1 mice, survival T/C, NC1=NNC(N)=NN1 : 92 % of control

Observed T/C, L1210 leukemia ip in BDF1 mice, survival T/C, CNNC(=O)NC : 94 % of control

Observed T/C, L1210 leukemia ip in BDF1 mice, survival T/C, O=S(=O)(Nc1ccccc1F)c1ccc2ccccc2c1 : 93 % of control

Observed T/C, L1210 leukemia ip in BDF1 mice, survival T/C, CCCCCCCCC(=O)CC : 104 % of control

Observed T/C, L1210 leukemia ip in BDF1 mice, survival T/C, N#CCCNc1ccc(NC(=O)C(F)(F)F)cc1 : 94 % of control

Observed T/C, L1210 leukemia ip in BDF1 mice, survival T/C, CC(=O)NCC1(c2ccccc2)CCN(CCCC(=O)c2ccc(F)cc2)CC1 : 107 % of control

Observed T/C, L1210 leukemia ip in BDF1 mice, survival T/C, Nc1cc(S(=O)(=O)O)cc2cc(S(=O)(=O)O)cc(S(=O)(=O)O)c12 : 107 % of control

Observed T/C, L1210 leukemia ip in BDF1 mice, survival T/C, O=C(Cn1ccc(O)cc1=O)N1CCC2(CC1)SSC1(CCN(C(=O)Cn3ccc(O)cc3=O)CC1)S2 : 86 % of control

Observed T/C, L1210 leukemia ip in BDF1 mice, survival T/C, CC(=N/NC(N)=S)/C(C)=N/NC(N)=S : 91 % of control

Observed T/C, L1210 leukemia ip in BDF1 mice, survival T/C, C/C=C1/C(=O)Oc2ccccc21 : 102 % of control

Observed T/C, L1210 leukemia ip in BDF1 mice, survival T/C, O=C(/C=C/c1ccccc1)N1CCOCC1 : 97 % of control

Observed T/C, L1210 leukemia ip in BDF1 mice, survival T/C, C[n+]1cccc(O)c1 : 90 % of control

Observed T/C, L1210 leukemia ip in BDF1 mice, survival T/C, NC(CC(=O)O)C(=O)O (centres undefined) : 97 % of control

Observed T/C, L1210 leukemia ip in BDF1 mice, survival T/C, c1ccc(P2(c3ccccc3)=NP(c3ccccc3)(c3ccccc3)=NP(c3ccccc3)(c3ccccc3)=N2)cc1 : 86 % of control

Observed T/C, L1210 leukemia ip in BDF1 mice, survival T/C, CCOC(=O)/C=C/c1c[nH]c(=O)[nH]c1=O : 109 % of control

Observed T/C, L1210 leukemia ip in BDF1 mice, survival T/C, O=C(O)c1ccc(C(=O)O)c(O)c1O : 105 % of control

Observed T/C, L1210 leukemia ip in BDF1 mice, survival T/C, O=C1CCN2C=CC=CC2=N1 : 98 % of control

Observed T/C, L1210 leukemia ip in BDF1 mice, survival T/C, COc1cc(C=Nc2ccc(-c3nc(C)sc3C)cc2)ccc1N(CCOS(C)(=O)=O)CCOS(C)(=O)=O : 121 % of control

Observed T/C, L1210 leukemia ip in BDF1 mice, survival T/C, Cc1csc(N)c1C(N)=O : 112 % of control

Observed T/C, L1210 leukemia ip in BDF1 mice, survival T/C, CCOC(=O)C1CCCCCC1=O (centres undefined) : 98 % of control

Observed T/C, L1210 leukemia ip in BDF1 mice, survival T/C, CC(Br)C(Br)CO (centres undefined) : 103 % of control

Observed T/C, L1210 leukemia ip in BDF1 mice, survival T/C, CCOC(=O)C(=CN1CCCC1)C(=O)OCC : 104 % of control

Observed T/C, L1210 leukemia ip in BDF1 mice, survival T/C, Cc1ccc(NN=Nc2ccccc2C#N)cc1 : 92 % of control

Observed T/C, L1210 leukemia ip in BDF1 mice, survival T/C, COc1cc(NS(C)(=O)=O)ccc1N : 103 % of control

Observed T/C, L1210 leukemia ip in BDF1 mice, survival T/C, CC1(C)OC(=O)CC(=O)O1 : 100 % of control

Observed T/C, L1210 leukemia ip in BDF1 mice, survival T/C, CC1(C)C(C)(C)C1(Cl)Cl : 100 % of control

Observed T/C, L1210 leukemia ip in BDF1 mice, survival T/C, CC(C)CCCC(C)CCO (centres undefined) : 105 % of control

Observed T/C, L1210 leukemia ip in BDF1 mice, survival T/C, O=[N+]([O-])c1cccc2c(Br)cccc12 : 106 % of control

Observed T/C, L1210 leukemia ip in BDF1 mice, survival T/C, CC12CCCC(=O)C1CC/C(=C\c1ccco1)C2=O (centres undefined) : 109 % of control

----------
For each record, write down the corresponding T/C.
Test system: L1210 leukemia ip in BDF1 mice, survival T/C
Measurement Description: NCI In Vivo Anticancer Drug Screen. Data for tumor model L1210 Leukemia (intraperitoneal) in B6D2F1 (BDF1) mice
Condition Set: endpoint: mean survival time; dose: 200.0 mg/kg/injection; schedule: Q04DX002 (ip); vehicle: saline; higher = longer survival
Toxic doses and inconclusive results are not listed.

molecule Cc1ccc(S(=O)(=O)OC23CCC(C)(CC2)C(=O)C3)cc1 , T/C observed: 102 % of control

molecule O=C(O)c1c(-c2ccccc2)oc(-c2ccccc2)c1C(=O)O , T/C observed: 94 % of control

molecule O=c1[nH]c2ccccc2o1 , T/C observed: 92 % of control

molecule COc1cccc2c(=O)c(C(=O)O)c[nH]c12 , T/C observed: 96 % of control

molecule CC(C)(C)C(C(=O)O)C(=O)O , T/C observed: 92 % of control

molecule O=C(O)/C(I)=C(\I)C(=O)O , T/C observed: 117 % of control

molecule CCCCCOC(=O)C1OC1(CC)c1ccccc1 (centres undefined) , T/C observed: 101 % of control

molecule COc1ccc(COC(=O)Oc2ccc(C)cc2)cc1 , T/C observed: 109 % of control

molecule Cc1cc(C)nc(N(C)CC(=O)O)n1 , T/C observed: 103 % of control

----------
System: L1210 leukemia ip in BDF1 mice, survival T/C
Measurement Description: NCI In Vivo Anticancer Drug Screen. Data for tumor model L1210 Leukemia (intraperitoneal) in B6D2F1 (BDF1) mice
Condition Set: endpoint: mean survival time; dose: 200.0 mg/kg/injection; schedule: Q01DX009 (ip); vehicle: Klucel (hydroxypropylcellulose) (HPC); higher = longer survival
Experimental: The antitumor activity of compounds was measured in mice bearing transplantable tumors. Survival or tumor size were measured and the results are expressed as the measurement made in the treated group (T) divided by the measurement made in the vehicle treated control group (C). The tumor model used in this assay is L1210 Leukemia (intraperitoneal) in B6D2F1 (BDF1) mice
Inconclusive results and toxic doses are left out.
Quantity: T/C

compound CC1(C#N)c2ccccc2C=CN1C(=O)c1ccccc1 (configuration not stated) , T/C observed: 95 % of control

compound Cc1ccc(C)c(NS(=O)(=O)c2ccc(Cl)c([N+](=O)[O-])c2)c1 , T/C observed: 105 % of control

compound COc1cc(C(=O)CCC(=O)O)cc(OC)c1OC , T/C observed: 104 % of control

compound O=c1[nH]c2nc3ccccc3nc2c(=O)n1OS(=O)(=O)c1ccccc1 , T/C observed: 100 % of control

compound Cc1cc(NC(=O)C(=O)Nc2cc(C)on2)no1 , T/C observed: 100 % of control

compound CC(=O)c1cccc(NC(=O)Nc2ncccc2C)c1 , T/C observed: 101 % of control

compound Cc1ccc(S(=O)(=O)Oc2ccc(C(C)(C)c3ccc(OS(=O)(=O)c4ccc(C)cc4)cc3)cc2)cc1 , T/C observed: 91 % of control

compound CCC(O)c1cnc(OCc2ccccc2)nc1OCc1ccccc1 (configuration not stated) , T/C observed: 95 % of control

compound CC1CCC(C(C)C)/C(=N/NC(=O)c2ccccc2)C1 (configuration not stated) , T/C observed: 93 % of control

compound CSc1ccc(NC(=O)C(Br)C(Br)c2ccccc2)cc1 (configuration not stated) , T/C observed: 105 % of control

compound COc1cccc2c(=O)c(C(=O)O)c[nH]c12 , T/C observed: 107 % of control

compound CC(C)CCOC(=O)C(O)c1ccccc1 (configuration not stated) , T/C observed: 92 % of control

compound COc1ccc(C(C)=O)cc1N , T/C observed: 104 % of control

compound CCCCCCCCCCNc1ccc(NCCCCCCCCCC)cc1 , T/C observed: 109 % of control

compound CCCCCCCCCCCCCCCCCC(=O)N/N=C/C(C=C=C(C)C)(CC)CCCC (configuration not stated) , T/C observed: 96 % of control

compound COc1ccc(CCC(C(=O)O)c2ccc(OC)c(OC)c2)cc1OC (configuration not stated) , T/C observed: 106 % of control

compound COC1(OC)C2(Cl)C(Cl)=C(Cl)C1(Cl)C1C(=O)C=CC(=O)C12 (configuration not stated) , T/C observed: 96 % of control

Attribution: PubChem BioAssay AID248
